Entry source: a melting point compilation (Tetko et al.; mined from patent text by program, amines drawn as free bases though some values may be those of a salt)

melting point values, listed per item

Field: example entries. Status: answers known.
>>> result("CN(C(=O)OC(C)(C)C)c1cc(Oc2ccc(-n3ccnc3)cc2)ccc1N")
"115 to 116 °C"
>>> result("COc1cc(Nc2c(C#N)cnc3cc(F)ccc23)c(Cl)cc1Cl")
"199 to 201 °C"
>>> result("FC1(F)c2ccccc2Cc2ccccc2C1(F)F")
"53.5 to 55 °C"
>>> result("CC(=O)c1ccc2cc(S(N)(=O)=O)sc2c1")
"154 to 155 °C"
>>> result("CCSc1ccc(NC(=S)NC(=O)OC)c([N+](=O)[O-])c1")
"152 °C"
>>> result("CCN(CC)c1ncnc2nc(-c3ccncc3)[nH]c12")
"260 to 262 °C"

Prompt line: Requested read-out: melting point. Entry: Cc1n[nH]c([N+](=O)[O-])c1-c1ncc([N+](=O)[O-])n1C
Response line: 184 °C

Prompt line: What does the record list as melting point for CCCCOC(=O)[C@H]1CN(c2ccc3c(c2)sc(=O)n3CC)C(=O)O1 ?
Response line: 99 to 102 °C

Prompt line: Need melting point, item CCN(C(=O)Cn1c(=O)n(C)c2nc(-c3ccccc3)ncc21)c1ccccc1
Response line: 240 to 242 °C

Prompt line: Fill in the blank: the reported melting point of COC(=O)CCc1cnoc1-c1ccc2c(c1)OCO2 is ____.
Response line: 84 to 85 °C

---

Reported melting point by item:

>>> result("COc1cc(C2C3=C(COC3=O)Nc3ccc4nc(C)sc4c32)ccc1O (stereo not drawn)")
"293 to 295 °C"
>>> result("COC(=O)CCn1c(=O)n(CCCCCN2CCN(c3cccc(C(F)(F)F)c3)CC2)c(=O)c2cscc21")
"99.5 to 101 °C"
>>> result("Cc1ccc(C)c2c1CCC2=NNC(N)=NC(c1ccccc1)c1ccccc1")
"271 to 273 °C"
>>> result("CC(C(=O)O)c1ccc2cc(OCc3ccc4ccccc4c3)ccc2c1 (stereo not drawn)")
"216 to 218 °C"
>>> result("CON=C(C(C)=NN=Cc1ccccc1C(=NOC)C1=NOCCO1)c1ccccc1")
"136 °C"

Prompt line: State the recorded melting point for this entry: O=S(=O)(Oc1ccc(OCc2ccc3ccccc3n2)cc1C1(c2ccccc2)CC2CCC1C2)C(F)(F)F (stereo not drawn)
Response line: 131 to 132 °C

Prompt line: Which melting point reading was recorded for the compound CN(C)C1=Nc2cc(Br)ccc2N2CCc3cccc1c32 ?
Response line: 124 to 127 °C

Prompt line: Reported melting point, compound COc1cccc(C=C2N=C(c3ccc([N+](=O)[O-])cc3)OC2=O)c1OC : ____
Response line: 203 to 208 °C

Prompt line: Endpoint output: melting point of CCOC(=O)c1ccc2sc(C=Cc3cccnc3)c(C)c2c1 . Value?
Response line: 123 to 124 °C

Prompt line: Fill in: melting point of CCc1nc2c(C)cc(C)nc2n1Cc1ccc(C(=C(SC)c2nnn[nH]2)c2ccccc2)cc1 is ___
Response line: 116 to 119 °C

Prompt line: I have this compound here, CN(C)C=C(C#N)C(=O)Nc1cc(Cl)ccc1Cl , and I need its recorded melting point.
Response line: 175 to 176 °C

Prompt line: Returns the measured melting point for the input compound. Input: CC(C)(C)OC(=O)N1CC=C(c2ccnc(C(=O)N(O)Cc3ccccc3)c2)CC1
Response line: 125 °C

Prompt line: Which melting point value belongs to CCN(CC)C(=O)CN1C(=O)C(NC(=O)Nc2ccccc2Cl)N=C(c2ccccc2)c2ccccc21 (stereo not drawn) ?
Response line: 173 to 175 °C

Prompt line: Entry COc1cccc(CNC(=O)c2cc3c(=O)n(CCOc4ccc(Cl)cc4)c(=O)n(C)c3s2)c1 has what melting point?
Response line: 109 to 112 °C

Prompt line: Which melting point is listed for COCCN1CCN(CCc2ccc(Nc3ncc4c(n3)-c3ccccc3C(c3cccc(Br)c3)C4)cc2)CC1 (stereo not drawn) ?
Response line: 105 to 107 °C

Prompt line: Fill in: melting point of CCCc1nc2c(N)nc3cc(OCc4ccc(OC)cc4)ccc3c2n1CC(C)C is ___
Response line: 186 to 188 °C

Prompt line: # get_value(readout='melting point', item= Cc1oc(-c2cccc(C(F)(F)F)c2)nc1COc1cccc(CN(O)C(N)=O)c1 )
Response line: 160 to 161 °C

Prompt line: # get_value(readout='melting point', item= CC(C)(C#N)c1c(Cl)cc(-n2nc(C(=O)O)c(=O)[nH]c2=O)cc1Cl )
Response line: 157 °C

---

Catalogue of molecules with associated melting point

>>> result("CCNC(=O)N1c2ccccc2-c2noc3c2C1CCC3 (configuration not stated)")
"189 °C"
>>> result("CC1(C)CCC(C#N)(Cc2ccc(Cl)cc2)C1=O (configuration not stated)")
"101 to 103 °C"
>>> result("CC(C)NS(=O)(=O)Oc1ccc(F)cc1")
"145 to 146 °C"
>>> result("CCCC/C=C\\CCCCCCCCCC1=CC(=O)C=C(OC)C1=O")
"39.5 to 41.5 °C"
>>> result("CC1(C)CC(NC(=O)CCC(=O)O)CC(C)(C)N1OC1CCCCC1")
"136 to 138 °C"
>>> result("CC(C)NCC(O)COc1ccccc1C1=NN(C)C(=O)CC1 (configuration not stated)")
"82 to 84 °C"
>>> result("O=C(CCCC1CCN(Cc2ccccc2)CC1)c1ccc(N2CCCC2)cc1")
"115 to 116 °C"
>>> result("CCC(C(=O)N(C)C)n1cc(Cl)c(-c2ccccc2C)n1 (configuration not stated)")
"49.5 to 52 °C"
>>> result("CN(c1cccc2cc(C3=NCC(CC(=O)O)S3)[nH]c12)S(=O)(=O)c1ccccc1C(F)(F)F (configuration not stated)")
"170 to 172 °C"
>>> result("CC(=S)NC[C@H]1CN(c2ccc(-c3nc(Cn4cccn4)cs3)c(F)c2)C(=O)O1")
"166 to 168 °C"

Prompt line: Param item = CC(C(=O)O)c1ccc(Cc2ccccc2CC(=O)O)cc1 (configuration not stated) ; retrieve measured melting point.
Response line: 135 to 137 °C

Prompt line: # input molecule: CCOC(=O)C(=Cc1ccc(-c2cccc(NC)c2)cc1)OCC ; wanted: its melting point
Response line: 52 °C

Prompt line: Can you share its melting point? I mean this molecule: CCCCCCCCCCCC(=O)OC[C@H]1OCC(=NOCc2ccccc2)[C@@H](O)[C@@H]1O
Response line: 45 to 50 °C

Prompt line: What does the record list as melting point for Cc1ccc(C(=O)c2cc([N+](=O)[O-])ccc2Cl)cc1 ?
Response line: 121 °C

Prompt line: Return reported melting point; argument: CN1C(O)=C(C(=O)Nc2ccc(Cl)cc2)c2cscc2S1(=O)=O
Response line: 154 to 156 °C

Prompt line: Form field: reported melting point of CC1(C)CCOCN1C(=O)C(Cl)Cl
Response line: 105 to 106 °C

Prompt line: Item CC(=O)OCCn1nc(-c2cc(C(C)(C)C)c(O)c(C(C)(C)C)c2)c2ccc(C)nc21 has what recorded melting point?
Response line: 102 to 103 °C

Prompt line: Looking for the measured melting point of O=C1NC(=O)C(Cc2ccc(SCCCc3ccccc3)cc2)S1 (configuration not stated) , can you help?
Response line: 88 to 89 °C

Prompt line: Dear colleague, I am looking for the recorded melting point of the following molecule: Clc1cccc(N2CCN(Cc3ccc(-c4ccccc4)s3)CC2)c1
Response line: 115 °C

Prompt line: # lookup: melting point of Cc1ccc(N(Cc2ccccc2)c2ccccc2)cc1
Response line: 85 to 86 °C

Prompt line: Value lookup for melting point; key = O=C(c1ccc(F)cc1)C1(c2ccc(F)cc2)CCN(Cc2ccccc2)CC1
Response line: 136 to 138 °C

Prompt line: # input molecule: CN(C)CCOc1cc(O)cc(/C=C/c2ccc(O)cc2)c1 ; wanted: its melting point
Response line: 92 to 94 °C

---

// reported melting point per item

>>> result("CCOc1cccc(CC(=O)O)c1OCCCc1cn(-c2ccc(Cl)cn2)nc1C(CC)CC")
"92 to 93 °C"
>>> result("CC1(C)C(=O)Oc2ccc3ccc(Cn4cncn4)cc3c21")
"136 to 137 °C"
>>> result("OC1CCNC(Cc2ccccc2)C1 (centres undefined)")
"114 °C"
>>> result("CCN(CC)c1ccc2nc3c4ccccc4c(=Nc4cc(C)nc5ccccc45)cc-3oc2c1")
"229 to 230 °C"
>>> result("COC(=O)C(Oc1ccc2c(c1)CCC2)c1ccc(OCCCOc2ccc(Cl)cc2)cc1 (centres undefined)")
"60 to 62 °C"
>>> result("CS(=O)(=O)NC(=O)CC1(c2ccc(OCc3ccc4ccccc4n3)cc2)CCCC1")
"75 °C"

Prompt line: What value of melting point has been recorded for this entry: CC1(C)[C@@H]2CC3[C@H](C(N)=O)[C@@]3(C)C[C@@H]21 (some centres undefined)
Response line: 122 °C

Prompt line: Which melting point reading was recorded for the compound Nc1nc(SCc2ccccc2)nn1-c1nnc(-c2ccccc2O)s1 ?
Response line: 198 to 201 °C

Prompt line: Fill in: melting point of CC(C)(C)[Si](C)(C)Oc1ccc(C(=O)O)cc1C12CC3CC(CC(C3)C1)C2 is ___
Response line: 250 to 252 °C
